Catalogue of melting point values

In the examples that follow, each entry is paired with its recorded melting point.
COMPOUND: COc1cc2c(cc1OC)C1=C(CC2)C(C)(C)OCC1C (centres unmarked)
melting point: 115 to 117 °C
//
COMPOUND: COc1cc2c(cc1O)C1=C(CC2)C(C)(C)OCC1C (centres unmarked)
melting point: 141 to 143 °C
//
COMPOUND: CC1COC(C)(C)C2=C1c1cc(O)ccc1CC2 (centres unmarked)
melting point: 160 to 162 °C
//
COMPOUND: CC1COC(C)(C)C2=C1c1ccc(O)cc1CC2 (centres unmarked)
melting point: 199 to 201 °C
//
COMPOUND: COc1cccc2c1CCC1=C2C(C)COC1(C)C (centres unmarked)
melting point: 65 to 67 °C
//
COMPOUND: COc1ccc2c(c1)CCC1=C2C(C)COC1(C)C (centres unmarked)
melting point: 89.5 to 91.3 °C
//
COMPOUND: CC1COC(C)(C)C2=C1c1cccc(O)c1CC2 (centres unmarked)
melting point: 139.2 to 140.3 °C

Task: What value of melting point has been recorded for this entry: CC1COC(C)(C)C2=C1c1cc(O)c(O)cc1CC2 (centres unmarked)
Result: 122 to 123 °C

====

Catalogue of Total growth inhibition (TGI) values
system: HaCat (immortalized human keratinocytes); experiment: Antiproliferative sulforhodamine B assay, HaCat normal cell line; format: cell-based; conditions: 48 h treatment, SRB
Your answer should be a plain number; it is taken to be in µg/mL.

In the examples that follow, each entry is paired with its recorded Total growth inhibition (TGI).
COMPOUND: COc1cc2c(cc1O)C1=C(CC2)C(C)(C)OCC1C (stereo not shown)
TESTED_ON: HaCat (immortalized human keratinocytes)
Total growth inhibition (TGI), µg/mL: 160.7
--
COMPOUND: COc1ccc2c(c1)CCC1=C2C(C)COC1(C)C (stereo not shown)
TESTED_ON: HaCat (immortalized human keratinocytes)
Total growth inhibition (TGI), µg/mL: 54.4
--
COMPOUND: COc1cccc2c1CCC1=C2C(C)COC1(C)C (stereo not shown)
TESTED_ON: HaCat (immortalized human keratinocytes)
Total growth inhibition (TGI), µg/mL: 66.9

Task: GET /values?readout=Total growth inhibition (TGI)&system=HaCat (immortalized human keratinocytes)&item= COc1cccc2c1C(=O)c1c(O)c3c(c(O)c1C2=O)C[C@@](O)(C(=O)CO)C[C@@H]3O[C@H]1C[C@H](N)[C@H](O)[C@H](C)O1 [Doxorubicine, doxorubicin, reference compound]
Result: 0.67

Task: GET /values?readout=Total growth inhibition (TGI)&system=HaCat (immortalized human keratinocytes)&item= COc1ccc2c(c1)C1=C(CC2)C(C)(C)OCC1C (stereo not shown)
Result: 32.0

====

Catalogue of IC100 values
test system: PC-3 (prostate) cells; test: Antiproliferative sulforhodamine B assay, PC-3; assay type: cell-based; conditions: Homo sapiens, Prostate cell, 48 h treatment, SRB, read-out: Total growth inhibition (TGI)
Your answer should be a plain number; it is taken to be in µg/mL.

COMPOUND: COc1ccc2c(c1)CCC1=C2C(C)COC1(C)C (centres unmarked) [2b]
MEASURED_RESULT: 41.4

Task: What value of IC100 has been recorded for this entry: COc1ccc2c(c1)C1=C(CC2)C(C)(C)OCC1C (centres unmarked) [2c]
Result: 69.2

Task: What value of IC100 has been recorded for this entry: CC1COC(C)(C)C2=C1c1cc(O)ccc1CC2 (centres unmarked) [3c]
Result: 51.8

Task: What value of IC100 has been recorded for this entry: COc1cccc2c1C(=O)c1c(O)c3c(c(O)c1C2=O)C[C@@](O)(C(=O)CO)C[C@@H]3O[C@H]1C[C@H](N)[C@H](O)[C@H](C)O1 [Doxorubicine, doxorubicin, reference compound]
Result: 4.4

Task: What value of IC100 has been recorded for this entry: COc1cccc2c1CCC1=C2C(C)COC1(C)C (centres unmarked) [2a]
Result: 64.6

====

tested on: K-562 (leukemia) cells; assay: Antiproliferative sulforhodamine B assay, K-562; type: cell-based; conditions: Homo sapiens, K562, 48 h treatment, SRB, read-out: Total growth inhibition (TGI)
Catalogue of IC100 values

COMPOUND: COc1cccc2c1C(=O)c1c(O)c3c(c(O)c1C2=O)C[C@@](O)(C(=O)CO)C[C@@H]3O[C@H]1C[C@H](N)[C@H](O)[C@H](C)O1 [Doxorubicine, doxorubicin, reference compound]
TESTED_ON: K-562 (leukemia) cells
IC100: 25 µg/mL

COMPOUND: COc1cc2c(cc1OC)C1=C(CC2)C(C)(C)OCC1C (centres unmarked)
TESTED_ON: K-562 (leukemia) cells
IC100: > 250 µg/mL

COMPOUND: CC1COC(C)(C)C2=C1c1cc(O)ccc1CC2 (centres unmarked)
TESTED_ON: K-562 (leukemia) cells
IC100: 39.2 µg/mL

COMPOUND: COc1ccc2c(c1)C1=C(CC2)C(C)(C)OCC1C (centres unmarked)
TESTED_ON: K-562 (leukemia) cells
IC100: 128 µg/mL

COMPOUND: COc1ccc2c(c1)CCC1=C2C(C)COC1(C)C (centres unmarked)
TESTED_ON: K-562 (leukemia) cells
IC100: > 250 µg/mL

COMPOUND: COc1cccc2c1CCC1=C2C(C)COC1(C)C (centres unmarked)
TESTED_ON: K-562 (leukemia) cells
IC100: > 250 µg/mL

COMPOUND: CC1COC(C)(C)C2=C1c1cccc(O)c1CC2 (centres unmarked)
TESTED_ON: K-562 (leukemia) cells
IC100: > 250 µg/mL

Continue with the next compound.
Task: What value of IC100 has been recorded for this entry: CC1COC(C)(C)C2=C1c1ccc(O)cc1CC2 (centres unmarked)
Result: > 250 µg/mL

====

assay: Antiproliferative sulforhodamine B assay, HaCat normal cell line; format: cell-based, human; settings: human; HaCat normal immortalized keratinocytes, 48 h treatment, SRB
MEASURED_QUANTITY: GI50 at 48 h (µg/mL)
Your answer should be a plain number; it is taken to be in µg/mL.

Task: What value of GI50 at 48 h has been recorded for this entry: CC1COC(C)(C)C2=C1c1cc(O)ccc1CC2 (stereo not shown)
Result: 3.6

Task: What value of GI50 at 48 h has been recorded for this entry: COc1cc2c(cc1O)C1=C(CC2)C(C)(C)OCC1C (stereo not shown)
Result: 4.2

Task: What value of GI50 at 48 h has been recorded for this entry: CC1COC(C)(C)C2=C1c1cc(O)c(O)cc1CC2 (stereo not shown)
Result: 4.2

Task: What value of GI50 at 48 h has been recorded for this entry: COc1cccc2c1CCC1=C2C(C)COC1(C)C (stereo not shown)
Result: 25

====

test system: MCF-7 (breast) cells; experiment: Antiproliferative sulforhodamine B assay, MCF-7; format: cell-based; details: Homo sapiens, MCF7; MCF-7 mammary, 48 h treatment, SRB; read-out: Total growth inhibition (TGI)
MEASURED_QUANTITY: IC100 (µg/mL)
Your answer should be a plain number; it is taken to be in µg/mL.

In the examples that follow, each entry is paired with its recorded IC100.
MOLECULE: CC1COC(C)(C)C2=C1c1cc(O)c(O)cc1CC2 (stereo not shown)
IC100 [µg/mL]: 41.6

MOLECULE: COc1cccc2c1C(=O)c1c(O)c3c(c(O)c1C2=O)C[C@@](O)(C(=O)CO)C[C@@H]3O[C@H]1C[C@H](N)[C@H](O)[C@H](C)O1 [Doxorubicine, doxorubicin, reference compound]
IC100 [µg/mL]: 8.8

MOLECULE: COc1ccc2c(c1)C1=C(CC2)C(C)(C)OCC1C (stereo not shown)
IC100 [µg/mL]: 45.3

MOLECULE: COc1cc2c(cc1O)C1=C(CC2)C(C)(C)OCC1C (stereo not shown)
IC100 [µg/mL]: 58.2

MOLECULE: COc1ccc2c(c1)CCC1=C2C(C)COC1(C)C (stereo not shown)
IC100 [µg/mL]: 46.9

Task: What value of IC100 has been recorded for this entry: CC1COC(C)(C)C2=C1c1cc(O)ccc1CC2 (stereo not shown)
Result: 45

Task: What value of IC100 has been recorded for this entry: COc1cccc2c1CCC1=C2C(C)COC1(C)C (stereo not shown)
Result: 51.3

====

tested on: 786-0 (renal) cells; experiment: Antiproliferative sulforhodamine B assay, 786-0; assay type: cell-based; conditions: Homo sapiens; 786-0 kidney, 48 h treatment, SRB
MEASURED_QUANTITY: GI50 (µg/mL)

In the examples that follow, each entry is paired with its recorded GI50.
COMPOUND: COc1ccc2c(c1)CCC1=C2C(C)COC1(C)C (stereo not shown)
TESTED_ON: 786-0 (renal) cells
MEASURED_RESULT: 25.5
//
COMPOUND: CC1COC(C)(C)C2=C1c1ccc(O)cc1CC2 (stereo not shown)
TESTED_ON: 786-0 (renal) cells
MEASURED_RESULT: 36.8
//
COMPOUND: COc1cccc2c1CCC1=C2C(C)COC1(C)C (stereo not shown)
TESTED_ON: 786-0 (renal) cells
MEASURED_RESULT: 25

1. CC1COC(C)(C)C2=C1c1cc(O)c(O)cc1CC2 (stereo not shown)
2. COc1cc2c(cc1OC)C1=C(CC2)C(C)(C)OCC1C (stereo not shown)
3. COc1cc2c(cc1O)C1=C(CC2)C(C)(C)OCC1C (stereo not shown)
Task: Number of compounds to sort: 3. Sort criterion: GI50, ascending. Give the labels in the order specified.
Result: 1, 3, 2
(1: 5.6 µg/mL, 3: 24.1 µg/mL, 2: 45.8 µg/mL)

A. CC1COC(C)(C)C2=C1c1cccc(O)c1CC2 (stereo not shown)
B. COc1ccc2c(c1)C1=C(CC2)C(C)(C)OCC1C (stereo not shown)
Task: Select the item whose GI50 value is smaller, choosing between A and B . When you have decided, please share the label of that item.
Result: B
(B: 25 µg/mL, A: 37.3 µg/mL)

I. COc1cccc2c1C(=O)c1c(O)c3c(c(O)c1C2=O)C[C@@](O)(C(=O)CO)C[C@@H]3O[C@H]1C[C@H](N)[C@H](O)[C@H](C)O1 [Doxorubicine, doxorubicin, reference compound]
II. CC1COC(C)(C)C2=C1c1cc(O)ccc1CC2 (stereo not shown)
Task: Select the item whose GI50 value is smaller, choosing between I and II . When you have decided, please share the label of that item.
Result: I
(I: 0.04 µg/mL, II: 24.6 µg/mL)
